Target Under Test: Group 10 secretory phospholipase A2 (Homo sapiens, UniProt O15496)
Method Description: Binding affinity to sPLA2X (unknown origin) by NMR spectroscopy based displacement assay
pIC50: −log10 of the molar value.
Property Name: pIC50

Here are 2 compounds together with their reported answers.
INSERT INTO assay_data (line_notation, test_value) VALUES
  ('O=C(O)c1ccc(-n2ncc3ccccc3c2=O)cc1', 4.30),
  ('Oc1nc(-c2ccccc2)c(-c2ccccc2)[nH]1', 4.35);

a = O=C(O)c1csc(-c2ccc3c(c2)CCO3)n1
b = Cc1cc(-c2cc(C(N)=O)n[nH]2)c(C)s1
Of the pair a and b , name the member with the lesser recorded pIC50. Pick one and reply with its label. a
(a: 4.15, b: 4.70)

---

Target Under Test: Group 10 secretory phospholipase A2 (Homo sapiens, UniProt O15496)
Method Description: Binding affinity to sPLA2X (unknown origin)
Property Name: pIC50
# log scale: pIC50 equals minus log10 of the concentration in mol/L

Short answer for COc1ccc2c(C(O)C(N)=O)c(C)n(Cc3ccccc3)c2c1 (stereo unspecified) : pIC50 was 3.60

---

Target Under Test: Group 10 secretory phospholipase A2 (Homo sapiens)
Sequence (O15496 whole entry): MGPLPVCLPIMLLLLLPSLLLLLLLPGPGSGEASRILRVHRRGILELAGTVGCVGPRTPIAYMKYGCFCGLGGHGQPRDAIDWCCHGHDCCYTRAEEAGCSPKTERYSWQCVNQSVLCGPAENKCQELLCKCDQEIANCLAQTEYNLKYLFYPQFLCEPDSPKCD
Method Description: Inhibition of human sPLA2X using 1,2-bis(heptanoylthio) glycerophosphocholine substrate incubated for 30 mins
pIC50: −log10 of the molar value.
Property Name: pIC50

INSERT INTO results (line_notation, target_under_test, property_name, test_value) VALUES
  ('Cc1sc(-c2ccccc2)cc1-c1cc(C(N)=O)n[nH]1', 'Group 10 secretory phospholipase A2 (Homo sapiens)', 'pIC50', 6.46),
  ('Cc1sc(-c2ccccc2)cc1-c1cc(C(N)=O)nn1C', 'Group 10 secretory phospholipase A2 (Homo sapiens)', 'pIC50', 5.92),
  ('Cc1cc(-c2cc(C(N)=O)nn2C)c(C)s1', 'Group 10 secretory phospholipase A2 (Homo sapiens)', 'pIC50', 6.07),
  ('Cc1sc2ccccc2c1-c1cc(C(N)=O)nn1C', 'Group 10 secretory phospholipase A2 (Homo sapiens)', 'pIC50', 6.07),
  ('NC(=O)c1cc(-c2cc(Cl)sc2Cl)[nH]n1', 'Group 10 secretory phospholipase A2 (Homo sapiens)', 'pIC50', 6.40);

I = Cc1sccc1-c1cc(C(N)=O)n[nH]1
II = Cc1cc(-c2cc(C(N)=O)n[nH]2)c(C)s1
III = NC(=O)c1cc(-c2ccccc2Cl)[nH]n1
IV = Cc1sc2ccccc2c1-c1cc(C(N)=O)n[nH]1
V = Cc1ccccc1-c1cc(C(N)=O)n[nH]1
// sort entries: pIC50, high to low Please list each label once, in the requested order. IV, II, I, V, III
(IV: 6.76, II: 6.50, I: 6.20, V: 5.56, III: 5.03)
